Biological target: T1, alpha-methylacyl-CoA racemase (AMACR) (UniProt Q9UHK6 1-382)
T1 sequence: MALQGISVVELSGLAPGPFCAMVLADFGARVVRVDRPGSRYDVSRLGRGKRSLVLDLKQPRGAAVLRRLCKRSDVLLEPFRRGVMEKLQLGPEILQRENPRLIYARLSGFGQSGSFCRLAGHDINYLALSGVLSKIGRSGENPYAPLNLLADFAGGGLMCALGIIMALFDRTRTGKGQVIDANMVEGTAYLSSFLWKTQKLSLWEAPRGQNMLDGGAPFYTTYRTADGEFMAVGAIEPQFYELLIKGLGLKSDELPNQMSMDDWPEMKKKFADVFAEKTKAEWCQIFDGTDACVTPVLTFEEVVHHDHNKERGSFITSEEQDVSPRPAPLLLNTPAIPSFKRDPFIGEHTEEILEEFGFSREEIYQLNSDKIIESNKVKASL
Assay: ELAA
assayMetric: pKd
In textbook form, pKd equals minus log to base ten of the concentration in mol/L.

{"binder": "TGAACTACTTAGTTTTATCCACTTATCCTG (ssDNA) [truncated A24 (N30)]", "assayMetric": "pKd", "recordedMeasurement": 6.32}
{"binder": "CTTTATGTGTCGGGATCAGATACACATCCG (ssDNA) [truncated A38 (N30)]", "assayMetric": "pKd", "recordedMeasurement": 6.09}
{"binder": "DC14 (dimeric truncated C14) (ssDNA) DNA: AACCAAATATCTACGCATCATTTTTCCTTTAACCAAATATCTACGCATCATTTTTCCTTT", "assayMetric": "pKd", "recordedMeasurement": 7.18}
{"binder": "AAAAATTTTTCCTTGTATGTCATTCTCTCA (ssDNA) [truncated B38 (N30)]", "assayMetric": "pKd", "recordedMeasurement": 6.76}
{"binder": "ACTTTTATCTCTCCTAACCTGTCCTGGGGT (ssDNA) [truncated C20 (N30)]", "assayMetric": "pKd", "recordedMeasurement": 6.69}

Noted for AACCAAATATCTACGCATCATTTTTCCTTT (ssDNA) [truncated C14 (N30)] : its pKd reads 6.82

Noted for GTCGAACCGTAGGGGCTATCTGTTGTGGGC (ssDNA) [truncated B4 (N30)] : its pKd reads 6.06
